This collection of values is drawn from ChEMBL document CHEMBL3272098.

test system: Vaccinia virus; experiment: Antiviral activity against Vaccinia virus IHD infected in African green monkey BGM cells after 6 days by plaque reduction assay; format: functional; conditions: Orthopoxvirus vaccinia, 144 h, read-out: ED50 (the source's name)
Overview of recorded pEC50 for various compounds
Lab note: report pEC50 as minus log10 of the concentration in molar units, number only.

# molecule_smiles, pEC50
data = [
    ("CCCCCCCCC(=O)OC[C@H]1O[C@@H]2[C@@H](Oc3nc(=N)ccn32)[C@@H]1OC(=O)CCCCCCCC.Cl", 6.49),
]

Data request, read-out pEC50, for "CCCCCCCCCCCC(=O)OC[C@H]1O[C@@H]2[C@@H](Oc3nc(=N)ccn32)[C@@H]1OC(=O)CCCCCCCCCCC.Cl"
6.15

Query (compound): "CCCCCCCC(=O)OC[C@H]1O[C@@H]2[C@@H](Oc3nc(=N)ccn32)[C@@H]1OC(=O)CCCCCCC.Cl" ; field requested: pEC50
6.25

For the compound "CCCCCCCCCCCCCCCC(=O)OC[C@H]1O[C@@H]2[C@@H](Oc3nc(=N)ccn32)[C@@H]1OC(=O)CCCCCCCCCCCCCCC.Cl" , what pEC50 is on record?
4.55

Give its pEC50 value. Item: "CC(=O)O[C@H]1[C@@H]2Oc3nc(=N)ccn3[C@@H]2O[C@@H]1COC(=O)C12CC3CC(CC(C3)C1)C2.Cl"
6.19

----------
test system: unidentified influenza virus; test: Antiviral activity against Influenza virus Ao/WNS infected in monkey LLC-MK2 cells after 5 days by pulp disk diffusion assay; type: functional, organism-based
Calls of active or inactive are those of the source. No cut-off for these calls is given here.
readout_name: Activity

Solved cases (8 shown):
# compound, readout_name, test_value
data = [
    ("CCCCCCCCCCCCCCCCCCCCCC(=O)OC[C@H]1O[C@@H]2[C@@H](Oc3nc(=N)ccn32)[C@@H]1OC(=O)CCCCCCCCCCCCCCCCCCCCC.Cl", "Activity", "inactive"),
    ("CCCCCCCCCC(=O)OC[C@H]1O[C@@H]2[C@@H](Oc3nc(=N)ccn32)[C@@H]1OC(=O)CCCCCCCCC.Cl", "Activity", "inactive"),
    ("CCCCCCCC/C=C\\CCCCCCCCCCCC(=O)OC[C@H]1O[C@@H]2[C@@H](Oc3nc(=N)ccn32)[C@@H]1OC(=O)CCCCCCCCCCC/C=C\\CCCCCCCC.Cl", "Activity", "inactive"),
    ("C/C=C/C=C/C(=O)OC[C@H]1O[C@@H]2[C@@H](Oc3nc(=N)ccn32)[C@@H]1OC(=O)/C=C/C=C/C.Cl", "Activity", "inactive"),
    ("CCCCCCCCCCCC(=O)OC[C@H]1O[C@@H]2[C@@H](Oc3nc(=N)ccn32)[C@@H]1OC(=O)CCCCCCCCCCC.Cl", "Activity", "inactive"),
    ("Cl.N=c1ccn2c(n1)O[C@H]1[C@H](O)[C@@H](CO)O[C@H]12 [ANCITABINE HYDROCHLORIDE]", "Activity", "inactive"),
    ("CCCCCCCCCCC(=O)OC[C@H]1O[C@@H]2[C@@H](Oc3nc(=N)ccn32)[C@@H]1OC(=O)CCCCCCCCCC.Cl", "Activity", "inactive"),
    ("CCCCCCCCCCCCCCCC(=O)OC[C@H]1O[C@@H]2[C@@H](Oc3nc(=N)ccn32)[C@@H]1OC(=O)CCCCCCCCCCCCCCC.Cl", "Activity", "inactive"),
]

# next compound below
What value of Activity has been recorded for this entry: "CC(=O)O[C@H]1[C@@H]2Oc3nc(=N)ccn3[C@@H]2O[C@@H]1COC(=O)C12C=CC(C)(CC1)CC2.Cl"
inactive

----------
tested on: L1210; experiment: Antitumor activity against mouse L1210 cells allografted in BDF1 mouse assessed as survival at 200 mg/kg, ip administered 24 hrs post-implantation after 30 days; format: functional, organism-based; set-up: dose 200 mg/kg
Activity calls are given as the source filed them. No cut-off for these calls is given here.
# valid calls are YES for active, NO for inactive; nothing else

A selection of reference data follows.
# compound, test_system, classification
records = [
    ("CCCCCCCCCCCCCCCCCCCC(=O)OC[C@H]1O[C@@H]2[C@@H](Oc3nc(=N)ccn32)[C@@H]1OC(=O)CCCCCCCCCCCCCCCCCCC.Cl", "L1210", "NO"),
    ("CCCCCCCCCCCCCCCCCC(=O)OC[C@H]1O[C@@H]2[C@@H](Oc3nc(=N)ccn32)[C@@H]1OC(=O)CCCCCCCCCCCCCCCCC.Cl", "L1210", "NO"),
    ("CC(=O)OC[C@H]1O[C@@H]2[C@@H](Oc3nc(=N)ccn32)[C@@H]1OC(C)=O.Cl", "L1210", "NO"),
    ("CCCCCCCCCCCCCCCC(=O)OC[C@H]1O[C@@H]2[C@@H](Oc3nc(=N)ccn32)[C@@H]1OC(=O)CCCCCCCCCCCCCCC.Cl", "L1210", "NO"),
]

Identify the outcome logged in this assay for the compound shown: "CC(=O)O[C@H]1[C@@H]2Oc3nc(=N)ccn3[C@@H]2O[C@@H]1COC(=O)C(C)(C)C.Cl"
NO

Given "CCCCCCCCCCCCCCCCCCCCCC(=O)OC[C@H]1O[C@@H]2[C@@H](Oc3nc(=N)ccn32)[C@@H]1OC(=O)CCCCCCCCCCCCCCCCCCCCC.Cl" , state the outcome it received in this test.
NO

State the result this test recorded for "CCCC(=O)OC[C@H]1O[C@@H]2[C@@H](Oc3nc(=N)ccn32)[C@@H]1OC(=O)CCC.Cl" .
NO

Called result for Cl.N=c1ccn2c(n1)O[C@H]1[C@H](O)[C@@H](CO)O[C@H]12 [ANCITABINE HYDROCHLORIDE]
NO

Just curious, what result did "CCCCCCCC(=O)OC[C@H]1O[C@@H]2[C@@H](Oc3nc(=N)ccn32)[C@@H]1OC(=O)CCCCCCC.Cl" get here?
NO

Query: recorded result category for "CC(=O)O[C@H]1[C@@H]2Oc3nc(=N)ccn3[C@@H]2O[C@@H]1COC(=O)C12C=CC(C)(CC1)CC2.Cl" in this test
NO

Lab log entry: "CCCCCCCC/C=C\CCCCCCCC(=O)OC[C@H]1O[C@@H]2[C@@H](Oc3nc(=N)ccn32)[C@@H]1OC(=O)CCCCCCC/C=C\CCCCCCCC.Cl" — outcome as called in the assay?
YES

Field: outcome | Entry: "CCCCCCCCCCCC(=O)OC[C@H]1O[C@@H]2[C@@H](Oc3nc(=N)ccn32)[C@@H]1OC(=O)CCCCCCCCCCC.Cl"
YES

----------
Overview of recorded Activity for various molecules
test system: Mus musculus; assay: Toxicity in BDF1 mouse allografted with mouse L1210 cells assessed as reduction in average life span at 1000 mg/kg, ip administered 24 hrs post-implantation measured up to 30 days relative to control; type: organism-based; design: dose 1000 mg/kg, route intraperitoneal; scale not given: the % may be the effect or the level left; details: in vivo
Numeric answer only, unit % assumed.

Check out these entries, answers already filled in.
# molecule_smiles, Activity / %
measured = [
    ("CCCCCCCCCCCCCC(=O)OC[C@H]1O[C@@H]2[C@@H](Oc3nc(=N)ccn32)[C@@H]1OC(=O)CCCCCCCCCCCCC.Cl", 18),
    ("CCCCCCCCCCCC(=O)OC[C@H]1O[C@@H]2[C@@H](Oc3nc(=N)ccn32)[C@@H]1OC(=O)CCCCCCCCCCC.Cl", 18),
    ("CCCCCC(=O)OC[C@H]1O[C@@H]2[C@@H](Oc3nc(=N)ccn32)[C@@H]1OC(=O)CCCCC.Cl", 100),
    ("CCCCCCCC/C=C\\CCCCCCCC(=O)OC[C@H]1O[C@@H]2[C@@H](Oc3nc(=N)ccn32)[C@@H]1OC(=O)CCCCCCC/C=C\\CCCCCCCC.Cl", 31),
]

Request: Activity, test system Mus musculus, entry "CCCCCCCCCC(=O)OC[C@H]1O[C@@H]2[C@@H](Oc3nc(=N)ccn32)[C@@H]1OC(=O)CCCCCCCCC.Cl"
72

Find Activity (Mus musculus) for the entry "CCCC(=O)OC[C@H]1O[C@@H]2[C@@H](Oc3nc(=N)ccn32)[C@@H]1OC(=O)CCC.Cl"
100

----------
system: L1210; experiment: Antitumor activity against mouse L1210 cells allografted in BDF1 mouse assessed as increase in life span at 500 mg/kg, ip administered 24 hrs post-implantation measured up to 30 days relative to control; assay type: functional; conditions: route intraperitoneal
readout_name: ILS at 500 mg/kg (%)
Respond with the bare value in %.

# molecule, ILS at 500 mg/kg / %
data = [
    ("Cl.N=c1ccn2c(n1)O[C@H]1[C@H](O)[C@@H](CO)O[C@H]12 [ANCITABINE HYDROCHLORIDE]", 67),
]

Next molecule, please.
Query for L1210: what ILS at 500 mg/kg does the record show for "CCCC(=O)OC[C@H]1O[C@@H]2[C@@H](Oc3nc(=N)ccn32)[C@@H]1OC(=O)CCC.Cl" ?
85
